These entries and their values trace back to the supplement of paper PMC10981050.

test system: MOLM14; assay: cell viability relative to vehicle control; higher = less cytotoxic; settings: 10 µM; SRSF2 genotype: SRSF2 P95H/wt;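 further: after 48 h exposure read by CellTiter-Glo luminescence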
Structures can show the parent of a compound that is named as a salt.
Each record is given true if its reported cell viability is strictly below 90%. Records at or above 90% are given false.

Example entries begin here.
COMPOUND	GROUP
Fc1ccc(-c2c3cccc(C(F)(F)F)c3nn2Cc2ccc(F)cc2Cl)cc1	false
CNC(=O)c1cc(Oc2ccc(NC(=O)Nc3ccc(Cl)c(C(F)(F)F)c3)cc2)ccn1 [Sorafenib Tosylate]	true
Cc1cc(-c2nc(-c3ccc(OC(F)(F)F)cc3)no2)nn1Cc1ccnc(N2CCN(C3CC3)CC2)c1	true
Cc1ccc([C@@H]2O[C@H](CO)[C@@H](O)[C@H](O)[C@H]2O)cc1Cc1ccc(-c2ccc(F)cc2)s1	false

Q: Please state whether cell viability is below 90% for Cc1ccc(-n2sc(=O)n(Cc3ccc(F)cc3)c2=O)cc1
Ans: true

Q: Please state whether cell viability is below 90% for CC(C)(C)C#Cc1cc(N(C(=O)[C@H]2CC[C@H](C)CC2)[C@H]2CC[C@H](O)CC2)c(C(=O)O)s1
Ans: false

====

test system: MOLM14; assay: cell viability relative to vehicle control; higher = less cytotoxic; settings: 10 µM; SRSF2 genotype: SRSF2 wt/wt
Where a name gives a salt, the structure may show the parent alone.
Each record is given True if its reported cell viability is strictly below 90%. Records at or above 90% are given False.

Example entries begin here.
> print(dat)
                                   compound  measurement.target  group
1  Cn1nc(C(C)(C)C)cc1C(=O)N[C@@H](Cc1cccc(Cl)c1)C(=O)NCC#N [Cathepsin Inhibitor 1]              MOLM14  False
2  CC(C(=O)O)c1ccc(C(=O)c2cccs2)cc1 (centres undefined) [Suprofen (Profenal)]              MOLM14  False
3    OCc1c[nH]c2ccccc12 [Indole-3-carbinol]              MOLM14  False
4  COc1cc(O)c(C(=O)/C=C/c2ccccc2)c(OC)c1 [Flavokawain B]              MOLM14   True
5  O=C(O)Cc1cccc(OCCCN(Cc2cccc(C(F)(F)F)c2Cl)CC(c2ccccc2)c2ccccc2)c1              MOLM14  False
6  CC(=O)Oc1ccccc1C(=O)O.CC(=O)Oc1ccccc1C(=O)O.NC(N)=O [Carbasalate Calcium]              MOLM14  False
7   OCc1ccc(O)cc1 [4-Hydroxybenzyl alcohol]              MOLM14  False
8  Clc1ccc(C(c2c[nH]c3ccccc23)c2c[nH]c3ccccc23)cc1              MOLM14   True

Q: Please state whether cell viability is below 90% for CCN1C(=O)CNc2ncc(-c3ccc(-c4nc[nH]n4)nc3C)nc21
Ans: True

Q: Please state whether cell viability is below 90% for C=C(C)C1CC=C(C)CC1 (single isomer, unassigned; (+)) [(+)-Dipentene]
Ans: False

Q: Please state whether cell viability is below 90% for NC1(c2ccc(-c3nc4ccn5c(=O)[nH]nc5c4cc3-c3ccccc3)cc2)CCC1 [MK-2206 dihydrochloride]
Ans: True

Q: Please state whether cell viability is below 90% for O=C(O)CCCc1ccccc1 [Sodium Phenylbutyrate]
Ans: False

Q: Please state whether cell viability is below 90% for NS(N)(=O)=O [Sulfamide]
Ans: False

Q: Please state whether cell viability is below 90% for CN1CCN(Cc2ccc(NC(=O)Nc3ccc(Oc4ccnc(N)n4)cc3)cc2C(F)(F)F)CC1
Ans: True

Q: Please state whether cell viability is below 90% for Cc1cc(C(=O)NOCCO)c(Nc2ccc(I)cc2F)n(C)c1=O
Ans: True

Q: Please state whether cell viability is below 90% for COc1cc2c(cc1OC)[C@H]1C[C@@H](OC(=O)[C@@H](N)C(C)C)[C@H](CC(C)C)CN1CC2 [Valbenazine tosylate]
Ans: False

Q: Please state whether cell viability is below 90% for COc1cc(C=CC=O)ccc1O [Ferulaldehyde]
Ans: False

====

# key: entry, value: cell viability
tested on: OCI-AML2; experiment: cell viability relative to vehicle control; higher = less cytotoxic; details: 10 µM; SRSF2 genotype: P95H/wt
Give the value, in units of %, as a plain number.

MOLECULE	cell viability [%]
NCCCC[C@@H]1NC(=O)[C@@H](Cc2ccc(O)cc2)NC(=O)[C@H](CC(=O)O)NC(=O)CNC(=O)[C@H](CCCN=C(N)N)NC1=O [Cyclo(RGDyK)]	94.8
C[C@]12CC[C@H](O)CC1=CC[C@@H]1[C@@H]2CC[C@]2(C)C(n3cnc4ccccc43)=CC[C@@H]12 [Galeterone (TOK-001)]	80.3
C=C(C)[C@@H]1CC[C@]2(C(=O)O)CC[C@]3(C)[C@H](CC[C@@H]4[C@@]5(C)CC[C@H](O[C@@H]6OC[C@H](O)[C@H](O)[C@H]6O[C@@H]6O[C@@H](C)[C@H](O)[C@@H](O)[C@H]6O)[C@@](C)(CO)[C@@H]5CC[C@]43C)[C@@H]12 [Pulchinenoside A]	94.6
C=C[C@@]1(C)CC(=O)[C@]2(O)[C@@]3(C)[C@@H](O)CCC(C)(C)[C@@H]3[C@H](O)[C@H](OC(C)=O)[C@@]2(C)O1 [Forskolin]	105
NC(=O)c1cccc(-c2cc(Nc3ccc(OC(F)(F)F)cc3)ncn2)c1	43.7

Q: Give its cell viability value. Item: CN1CCN(c2cccc(Nc3nc4c(-c5ccc(S(C)(=O)=O)cc5)cccn4n3)c2)CC1
Ans: 11.9

====

tested on: OCI-AML2; assay: cell viability relative to vehicle control; higher = less cytotoxic; details: 10 µM; SRSF2 genotype: P95H/wt
# key: entry, value: cell viability
Your answer should be a number followed by the unit of measure.

Q: Give its cell viability value. Item: Oc1ccc2ccccc2c1SSc1c(O)ccc2ccccc12
Ans: 31.8%

====

test system: OCI-AML2; assay: cell viability relative to vehicle control; higher = less cytotoxic; details: 10 µM; SRSF2 genotype: P95H/wt
Each record is given 1.0 if its reported cell viability is strictly below 90%. Records at or above 90% are given 0.0.

> print(dat)
                                   compound  group
1  O=C1c2c(O)cc(O)cc2OC(c2ccc(O)c(O)c2)C1O (stereo not drawn) [Taxifolin (Dihydroquercetin)]    0.0
2    Cc1ccc(/C=N/NC(=O)c2ccccc2Oc2ccccc2)o1    0.0
3                 CC(=O)CCc1ccc(OC(C)=O)cc1    0.0
4  O=c1c(O)c(-c2ccc(O)cc2O)oc2cc(O)cc(O)c12 [Morin hydrate (Aurantica)]    0.0

Q: Please state whether cell viability is below 90% for COc1cc2c(cc1OC)CN(CCc1ccc(NC(=O)c3cc(OC)c(OC)cc3NC(=O)c3cnc4ccccc4c3)cc1)CC2
Ans: 0.0

Q: Please state whether cell viability is below 90% for N#CC(=C(O)c1ccc(Cl)cc1Cl)c1nc2ccccc2c(=O)[nH]1
Ans: 0.0

====

# key: entry, value: cell viability
test system: OCI-AML2; assay: cell viability relative to vehicle control; higher = less cytotoxic; details: 10 µM; SRSF2 genotype: wt/wt
Give the value, in units of %, as a plain number.

Answered examples (2):
MOLECULE	REPORTED_MEASUREMENT
CC(C)=CCCC(C)(O)C1CCC2(C)C1C(O)CC1C3(C)CCC(O)C(C)(C)C3C(OC3OC(CO)C(O)C(O)C3OC3OC(C)C(O)C(O)C3O)CC12C [(20S)Ginsenoside Rg2]	115
CC(C)CCCC(C)CCCC(C)CCCCC(C)CCCC(C)CCCC(C)C (centres undefined) [Squalane]	100

Q: Give its cell viability value. Item: O=C(O)CCC(=O)O [Succinic acid]
Ans: 97.5

====

tested on: OCI-AML2; test: cell viability relative to vehicle control; higher = less cytotoxic; conditions: 10 µM; SRSF2 genotype: wt/wt
MEASUREMENT_LABEL: cell viability (%)
Give the value, in units of %, as a plain number.

Answered examples (2):
> print(dat)
                                   compound  reported.measurement
1                        O=C(O)c1cc(O)ccc1O                   111
2  C/C=C(/C)C(=O)O[C@@H]1[C@H](OC(C)=O)c2c(ccc3ccc(=O)oc23)OC1(C)C                   104

Q: Give its cell viability value. Item: Cc1cc(NS(=O)(=O)c2ccc(N)cc2)no1 [Sulfamethoxazole sodium]
Ans: 109

Q: Give its cell viability value. Item: COc1cc2c(cc1O)CC[n+]1cc3c(OC)c(OC)ccc3cc1-2
Ans: 98.2

Q: Give its cell viability value. Item: CCCCc1nc(C)c(CC(=S)N(C)C)c(=O)n1Cc1ccc(-c2ccccc2-c2nnn[nH]2)cc1
Ans: 93.1

Q: Give its cell viability value. Item: CC(C)(C)[N+]([O-])=Cc1ccc(S(=O)(=O)O)cc1S(=O)(=O)O [NXY-059 (Disufenton sodium)]
Ans: 104

Q: Give its cell viability value. Item: COC(=O)c1ccc(O)c(C(=O)OC)c1 [Dimetghyl 4-Hydroxyisophthalate]
Ans: 96.6

Q: Give its cell viability value. Item: O=c1cc(-c2ccccc2)oc2cc(O)c(O)c(O)c12
Ans: 82.6

Q: Give its cell viability value. Item: Nc1ncnc2c1ncn2[C@@H]1O[C@H](CO)C[C@H]1O [Cordycepin]
Ans: 112
